Reference for the values: ChEMBL document CHEMBL5291721

# AC50 listing for each entry below
# measured target: Prostaglandin G/H synthase 1 (Rattus norvegicus, UniProt Q63921); also: assay procedure not described here
# Sequence (Q63921 whole entry): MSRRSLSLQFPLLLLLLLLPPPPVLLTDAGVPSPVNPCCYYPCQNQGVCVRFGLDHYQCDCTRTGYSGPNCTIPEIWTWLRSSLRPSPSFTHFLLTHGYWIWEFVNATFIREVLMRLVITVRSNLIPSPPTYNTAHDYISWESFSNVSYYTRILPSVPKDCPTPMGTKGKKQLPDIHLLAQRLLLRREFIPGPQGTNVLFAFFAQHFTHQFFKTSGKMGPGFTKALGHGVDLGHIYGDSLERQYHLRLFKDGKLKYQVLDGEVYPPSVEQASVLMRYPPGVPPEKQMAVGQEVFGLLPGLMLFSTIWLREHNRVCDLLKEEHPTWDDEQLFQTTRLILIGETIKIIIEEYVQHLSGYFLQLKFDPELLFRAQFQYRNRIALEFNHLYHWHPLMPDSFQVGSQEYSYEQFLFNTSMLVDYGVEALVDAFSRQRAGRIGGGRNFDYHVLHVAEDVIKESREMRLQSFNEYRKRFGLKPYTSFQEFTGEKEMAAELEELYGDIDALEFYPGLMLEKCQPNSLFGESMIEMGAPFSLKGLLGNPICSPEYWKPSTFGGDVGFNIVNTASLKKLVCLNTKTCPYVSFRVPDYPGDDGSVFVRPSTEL
# Assay type: functional
Enter your answer as a number in µM; do not include the unit.

>  <compound>
CC(=O)Oc1ccccc1C(=O)Nc1ncc([N+](=O)[O-])s1 [NITAZOXANIDE]

>  <value measured>
0.0031

$$$$

# next compound below
Kindly note the recorded AC50 for CC1(C)C(/C=C/C=C/C=C/C=C2\N(CCCCS(=O)(=O)O)c3ccc4ccccc4c3C2(C)C)=[N+](CCCCS(=O)(=O)[O-])c2ccc3ccccc3c21 [INDOCYANINE GREEN ACID FORM] , which is 21
